# EXPERIMENTAL_CONDITIONS: male, Sprague-Dawley, rat, in vivo, iv, 1 mg/kg
Record form. Attribute: Vssobs. Fill in for each entry.
Output spec: scalar in L/kg, unitless text.

**Q:** Requested read-out: Vssobs. Entry: C[C@@H](NC(=O)N1CCC(F)(F)CC1)C(=O)N[C@H](Cc1ccccc1)C(=O)C(=O)NCc1ccccn1 [Compound 296]
**A:** 16.3

**Q:** Fill in the blank: the reported Vssobs of COC[C@@H](NC(=O)CC1CC(F)(F)C1)C(=O)N[C@H](Cc1ccccc1)C(=O)C(=O)NCc1nccs1 [Compound 400] is ____.
**A:** 3.28

**Q:** Field request: Vssobs | item: C[C@@H](NC(=O)[C@@H]1C[C@@H]2[C@H](C1)C2(F)F)C(=O)N[C@H](Cc1ccccc1)C(=O)C(=O)NCc1ccccn1 [Compound 126]
**A:** 16.6

**Q:** Need Vssobs, item O=C(CNC(=O)C1CCC(F)(F)CC1)N[C@H](Cc1ccccc1)C(=O)C(=O)NCc1ccccn1 [Compound 155]
**A:** 3.29

**Q:** Given the compound C[C@@H](NC(=O)C1CCC(F)(F)CC1)C(=O)N[C@H](Cc1ccccc1)C(=O)C(=O)NCc1nccs1 [Compound 354] , what is its reported Vssobs?
**A:** 1.31

**Q:** Give the measured Vssobs of C[C@@H](NC(=O)C1CCC(F)(F)C1)C(=O)N[C@H](Cc1ccccc1)C(=O)C(=O)NCc1nccs1 (stereo partly shown) [Compound 379] .
**A:** 2.49

**Q:** Would you mind telling me what Vssobs value was observed for O=C(CC1CCC(F)(F)CC1)NCC(=O)N[C@H](Cc1ccccc1)C(=O)C(=O)NCc1ccccn1 [Compound 150] ?
**A:** 2.91

**Q:** Return reported Vssobs; argument: COC[C@@H](NC(=O)C1CCC(F)(F)CC1)C(=O)N[C@H](Cc1ccccc1)C(=O)C(=O)NCc1nccs1 [Compound 395]
**A:** 5.25

**Q:** I am curious: what Vssobs value has been reported for C[C@@H](NC(=O)CC1CC(F)(F)C1)C(=O)N[C@H](Cc1ccccc1)C(=O)C(=O)NCc1nccs1 [Compound 378] ?
**A:** 3.65

**Q:** Need Vssobs, item C[C@@H](NC(=O)C1CCC(F)(F)CC1)C(=O)N[C@H](Cc1ccccc1)C(=O)C(=O)NCc1ccccn1 [Compound 145]
**A:** 14.5
